- Test Target: TR-α (Homo sapiens, UniProt P10827)
- Sequence (P10827 1-410 isoform P10827-2): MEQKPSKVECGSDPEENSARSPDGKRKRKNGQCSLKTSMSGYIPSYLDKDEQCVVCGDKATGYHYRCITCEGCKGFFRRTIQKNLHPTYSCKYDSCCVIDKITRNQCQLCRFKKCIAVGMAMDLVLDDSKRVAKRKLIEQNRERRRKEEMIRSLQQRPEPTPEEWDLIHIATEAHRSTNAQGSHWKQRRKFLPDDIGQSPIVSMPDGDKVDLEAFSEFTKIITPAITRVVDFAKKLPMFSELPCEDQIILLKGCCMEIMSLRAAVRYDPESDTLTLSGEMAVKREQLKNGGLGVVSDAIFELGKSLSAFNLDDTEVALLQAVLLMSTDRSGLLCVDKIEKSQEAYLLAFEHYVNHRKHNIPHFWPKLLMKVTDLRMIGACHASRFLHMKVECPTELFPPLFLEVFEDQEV
- Assay: Binding to TR isoform TR-α
Result Type: pIC50
Note on units: pIC50 is unitless, being -log10 of a concentration expressed in mol/L.

Lab book: pIC50 of CC(C)c1cc(Oc2c(Br)cc(C(=O)O)cc2Br)cc(C(C)C)c1O noted as 5.80

----------
Here's what we have: Kd numbers for human TR-α LBD (Homo sapiens).
Numbers only; they are read as nM.

Case CC(C)c1cc(Oc2c(Br)cc(C[C@H](N)C(=O)O)cc2Br)ccc1O [IpBr2, 3,5-dibromo-3′-isopropylthyronine] , human TR-α LBD (Homo sapiens), Kd recorded as 0.017

Entry Cc1cc(C[C@H](N)C(=O)O)cc(C)c1Oc1ccc(O)c(C(C)C)c1 [Dimit, 3,5-dimethyl-3′-isopropylthyronine] , tested on human TR-α LBD (Homo sapiens), has a reported Kd of 6
